Target: T1, ΔNp63γ (Homo sapiens, UniProt Q9H3D4-6 1-393)
T1 sequence: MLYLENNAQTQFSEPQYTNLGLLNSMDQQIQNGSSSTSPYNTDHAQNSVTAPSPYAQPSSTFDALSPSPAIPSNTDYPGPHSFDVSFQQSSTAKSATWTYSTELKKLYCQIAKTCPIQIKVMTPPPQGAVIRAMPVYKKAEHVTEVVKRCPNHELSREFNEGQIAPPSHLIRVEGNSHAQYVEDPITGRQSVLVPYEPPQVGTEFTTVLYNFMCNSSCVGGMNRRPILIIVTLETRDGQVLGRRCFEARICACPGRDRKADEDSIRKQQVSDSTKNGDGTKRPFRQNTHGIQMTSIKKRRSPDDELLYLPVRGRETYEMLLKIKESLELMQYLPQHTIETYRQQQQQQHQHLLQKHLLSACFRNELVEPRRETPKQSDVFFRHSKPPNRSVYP
Experiment: anisotropy competition; 25 mM NaPi, 225 mM NaCl, 10% v/v glycerol, 5 mM DTT, 0.2 mg/mL BSA, 22°C; 20 nM labelled DNA; pH not stated for the binding assay
Conditions: protein: recombinant; tags: N-terminal 6xHis-lipoyl-TEV tag, cleaved; chain copies: 4
Listed binders paired with reported binding signal

Reference set, count: 2
BINDER: A5C (dsDNA) DNA 1: CGCGGACCTGTCCGGACATGTCCCGC DNA 2: GCGGGACATGTCCGGACAGGTCCGCG
MEASURE: binding signal
ASSAY_RESULT: 0.58 ΔlogKd vs ref
--
BINDER: G7C (dsDNA) DNA 1: CGCGGACATCTCCGGACATGTCCCGC DNA 2: GCGGGACATGTCCGGAGATGTCCGCG
MEASURE: binding signal
ASSAY_RESULT: 1.68 ΔlogKd vs ref

INPUT: Item under review: G2C (dsDNA) DNA 1: CGCGCACATGTCCGGACATGTCCCGC DNA 2: GCGGGACATGTCCGGACATGTGCGCG . Reported binding signal?
OUTPUT: 0.37 ΔlogKd vs ref

INPUT: Item under review: T6C (dsDNA) DNA 1: CGCGGACACGTCCGGACATGTCCCGC DNA 2: GCGGGACATGTCCGGACGTGTCCGCG . Reported binding signal?
OUTPUT: 0.52 ΔlogKd vs ref

INPUT: Item under review: A3C (dsDNA) DNA 1: CGCGGCCATGTCCGGACATGTCCCGC DNA 2: GCGGGACATGTCCGGACATGGCCGCG . Reported binding signal?
OUTPUT: 0.93 ΔlogKd vs ref
